Provenance of the data: patent US20240376151A1

Molecular target: CHIP (Homo sapiens)
Construct: N-term truncated CHIP (also known as STUB1, Uniprot ID: Q9UNE7, residues 23-303); made in house; host or cells: E. coli BL21 CodonPlus
Sequence (Q9UNE7 23-303): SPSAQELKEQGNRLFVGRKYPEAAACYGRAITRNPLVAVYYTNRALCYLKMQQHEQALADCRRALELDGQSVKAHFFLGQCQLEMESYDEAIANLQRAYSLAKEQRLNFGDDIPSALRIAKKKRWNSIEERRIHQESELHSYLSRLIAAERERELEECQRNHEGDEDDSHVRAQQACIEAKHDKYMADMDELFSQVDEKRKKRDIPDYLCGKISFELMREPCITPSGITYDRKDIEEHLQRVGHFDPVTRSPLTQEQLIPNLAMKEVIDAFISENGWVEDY
Experiment: Naive Library Presenter Screening (phage, NGS), CHIP
Assay type: binding
Conditions: CHIP target concentration 300 nM
Numbered stars: 1 amine (or outer) side, 2 acyl side, 3 side chain; on linkers, the order of the positions; unused ones are H or OH. Bridge positions count the residues as written; N and C are the ends. Ends that are not written are not given here. Phenylene(1,4-NHCOCH2)2 = O=C(C[*:1])Nc1ccc(NC(=O)C[*:2])cc1
# True = interaction data at Target Concentration 300 below 20 (exclusive); False = interaction data at Target Concentration 300 at/above 20

Sample answers from the record:
Req: # TODO verify interaction data at Target Concentration 300 < 20 strictly for this sequence: PCYSAWITCES (linker 2-9 via Phenylene(1,4-NHCOCH2)2 (inferred))
Resp: False

Req: For this sequence, is interaction data at Target Concentration 300 lower than 20? ICYNAWFECE (linker 2-9 via Phenylene(1,4-NHCOCH2)2 (inferred))
Resp: True

Req: interaction data at Target Concentration 300 under 20? Item: ICWAAWVSCS (linker 2-9 via Phenylene(1,4-NHCOCH2)2 (inferred))
Resp: False

Next:
Req: Find out if reported interaction data at Target Concentration 300 for ICYTAWLECE (linker 2-9 via Phenylene(1,4-NHCOCH2)2 (inferred)) is less than 20
Resp: True

Req: Check if interaction data at Target Concentration 300 falls below 20 for PCFEAWVMCEI (linker 2-9 via Phenylene(1,4-NHCOCH2)2 (inferred)) .
Resp: False

Req: Please let me know if PCWEAWLWCSM (linker 2-9 via Phenylene(1,4-NHCOCH2)2 (inferred)) shows interaction data at Target Concentration 300 below 20.
Resp: False

---

interaction data at Target Concentration 30 values, listed per item
Biological target: WWP2^HECT (Homo sapiens)
Construct: GST-TEV (N, cleaved yes); made in house; host or cells: Escherichia coli BL21 (DE3)
Sequence (O00308 492-865): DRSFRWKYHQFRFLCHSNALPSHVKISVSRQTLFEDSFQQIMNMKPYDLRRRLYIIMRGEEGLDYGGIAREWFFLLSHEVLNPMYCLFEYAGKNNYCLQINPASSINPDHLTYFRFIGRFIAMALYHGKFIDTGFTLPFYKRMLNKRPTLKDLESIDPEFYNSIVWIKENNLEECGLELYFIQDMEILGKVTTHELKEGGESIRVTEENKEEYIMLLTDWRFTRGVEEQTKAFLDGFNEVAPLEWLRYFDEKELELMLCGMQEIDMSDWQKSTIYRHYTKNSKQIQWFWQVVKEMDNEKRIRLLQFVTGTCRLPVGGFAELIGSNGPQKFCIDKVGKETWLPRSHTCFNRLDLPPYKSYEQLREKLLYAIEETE
Assay: Naive Library Presenter Screening (phage, NGS), WWP2^HECT
Format: binding
Details: WWP2 target concentration 30 nM
Numbered stars: 1 amine (or outer) side, 2 acyl side, 3 side chain; on linkers, the order of the positions; unused ones are H or OH. Bridge positions count the residues as written; N and C are the ends. Ends that are not written are not given here. Phenylene(1,4-NHCOCH2)2 = O=C(C[*:1])Nc1ccc(NC(=O)C[*:2])cc1
// response body must contain only the number

Documented interaction data at Target Concentration 30 of DPATWDCIWAAERCWRY (linker 7-14 via Phenylene(1,4-NHCOCH2)2 (inferred); not fully specified (C-terminus)) : 0

// recorded interaction data at Target Concentration 30 for DPALWECRNAAWQCWMH (linker 7-14 via Phenylene(1,4-NHCOCH2)2; not fully specified (C-terminus)) : 0

The reported value for DPATWDCQQAAHHCWVL (linker 7-14 via Phenylene(1,4-NHCOCH2)2 (inferred); not fully specified (C-terminus)) in terms of interaction data at Target Concentration 30 is 0

According to the records, this sequence DPAVWECRWAAFQCWLD (linker 7-14 via Phenylene(1,4-NHCOCH2)2 (inferred); not fully specified (C-terminus)) displays interaction data at Target Concentration 30 of 0

Entry DPAVWDCRYAAWDCYTN (linker 7-14 via Phenylene(1,4-NHCOCH2)2 (inferred); not fully specified (C-terminus)) ; interaction data at Target Concentration 30 = 0

Given item DPARVNCHAAADTCFFF (linker 7-14 via Phenylene(1,4-NHCOCH2)2) , the value recorded as its interaction data at Target Concentration 30 is 83

Please fill in: interaction data at Target Concentration 30 reported for DPAANYCEAAADTCQFF (linker 7-14 via Phenylene(1,4-NHCOCH2)2 (inferred)) = 179

Sample DPAIWDCLYAATNCYIN (linker 7-14 via Phenylene(1,4-NHCOCH2)2; not fully specified (C-terminus)) ; interaction data at Target Concentration 30 observed: 0

Further cases:
Lab book: interaction data at Target Concentration 30 of DPATWACINAAHNCWRN (DPATWACINAAHNCWRN-NH2; linker 7-14 via Phenylene(1,4-NHCOCH2)2 (inferred)) noted as 0

The sequence listed as DPATWDCRNAAWLCLLN (linker 7-14 via Phenylene(1,4-NHCOCH2)2 (inferred); not fully specified (C-terminus)) shows interaction data at Target Concentration 30 equal to 1

For reference, reported interaction data at Target Concentration 30 for DPALWHCLAAAETCAMF (linker 7-14 via Phenylene(1,4-NHCOCH2)2; not fully specified (C-terminus)) stands at 38

Just so you know, measured interaction data at Target Concentration 30 for DPAIHSCYAAAETCQFF (linker 7-14 via Phenylene(1,4-NHCOCH2)2 (inferred)) came out at 87
